Molecular target: T1, human IL-17A (construct not specified) (human, UniProt Q16552 24-155, limits assumed)
T1 sequence: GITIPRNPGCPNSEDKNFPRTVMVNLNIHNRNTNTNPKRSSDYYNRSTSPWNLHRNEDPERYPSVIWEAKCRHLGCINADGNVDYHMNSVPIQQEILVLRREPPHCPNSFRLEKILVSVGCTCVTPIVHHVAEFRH
Assay: cell-based or functional assay
Reported values of EC50, T = 0 weeks for individual entries
Quote the value and follow it with the unit of measurement.

Example entries and their recorded answers appear below.
{"binder": "XAB5 (antibody, human IgG1, kappa, V domains shown) VH: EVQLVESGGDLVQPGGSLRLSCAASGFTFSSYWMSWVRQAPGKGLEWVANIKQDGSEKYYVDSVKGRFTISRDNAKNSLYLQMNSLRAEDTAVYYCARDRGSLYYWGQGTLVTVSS VL: AIQLTQSPSSLSASVGDRVTITCRPSQGINWELAWYQQKPGKAPKLLIYDASSLENGVPSRFSGSGSGTDFTLTISSLQPEDFATYYCQQFNSYPLTFGGGTKVEIKR", "observed-property": "EC50, T = 0 weeks", "reading": "0.045 µg/mL"}
{"binder": "XAB4 (antibody, human IgG1, kappa, V domains shown) VH: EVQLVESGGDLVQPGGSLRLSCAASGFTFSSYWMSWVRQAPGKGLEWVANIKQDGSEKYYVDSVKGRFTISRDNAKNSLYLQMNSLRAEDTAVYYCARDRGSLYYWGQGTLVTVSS VL: AIQLTQSPSSLSASVGDRVTITCRPSQGINWELAWYQQKPGKAPKLLIYDASSLEQGVPSRFSGSGSGTDFTLTISSLQPEDFATYYCQQFNSYPLTFGGGTKVEIKR", "observed-property": "EC50, T = 0 weeks", "reading": "0.048 µg/mL"}
{"binder": "XAB3 (antibody, human IgG1, kappa, V domains shown) VH: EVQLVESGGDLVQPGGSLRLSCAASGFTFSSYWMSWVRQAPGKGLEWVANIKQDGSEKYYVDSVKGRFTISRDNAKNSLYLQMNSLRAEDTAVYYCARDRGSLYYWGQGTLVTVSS VL: AIQLTQSPSSLSASVGDRVTITCRPSQGIYWELAWYQQKPGKAPKLLIYDASSLEQGVPSRFSGSGSGTDFTLTISSLQPEDFATYYCQQFNSYPLTFGGGTKVEIKR", "observed-property": "EC50, T = 0 weeks", "reading": "0.04 µg/mL"}

Please look at the following binder next.
Prompt line: May I ask what EC50, T = 0 weeks has been recorded for XAB2 (antibody, human IgG1, kappa, V domains shown, full IgG) VH: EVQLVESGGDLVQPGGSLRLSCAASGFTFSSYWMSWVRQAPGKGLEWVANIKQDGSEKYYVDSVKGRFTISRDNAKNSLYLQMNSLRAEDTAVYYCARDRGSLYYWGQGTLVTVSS VL: AIQLTQSPSSLSASVGDRVTITCRPSQVIISALAWYQQKPGKAPKLLIYDASSLEQGVPSRFSGSVSGTDFTLTISSLQPEDFATYYCQQFDSYPLTFGGGTKVEIKR ?
Response line: 0.045 µg/mL
